TARGET_DESC: wild type human RORγt ligand binding domain (RORyt LBD) (Homo sapiens)
Construct: His-tag (N); TurboTEV protease cleavage site (ENLYFQG) (N)
Sequence (P51449 258-518): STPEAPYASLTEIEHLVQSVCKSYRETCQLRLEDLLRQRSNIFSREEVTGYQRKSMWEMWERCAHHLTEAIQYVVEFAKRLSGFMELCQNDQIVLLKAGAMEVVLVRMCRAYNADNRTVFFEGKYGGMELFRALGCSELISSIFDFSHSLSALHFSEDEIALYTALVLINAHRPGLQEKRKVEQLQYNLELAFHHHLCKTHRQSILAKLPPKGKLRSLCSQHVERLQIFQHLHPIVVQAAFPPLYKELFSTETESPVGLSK
EXPERIMENTAL_DETAILS: RORγt ThermoFluor assay (thermal shift, binding affinity KD)
pKd: −log10 of the molar value.
# binarize pKd: threshold 7 inclusive, high side label 1, low side label 0

{"COMPOUND": "Cc1ccc(C(O)(c2ccc3nc(C)c(Cc4ccc(C(F)(F)F)cc4)c(Cl)c3c2)c2cnnn2C)c(C)n1 (centres unmarked) [Example 28a]", "TARGET_DESC": "wild type human RORγt ligand binding domain (RORyt LBD) (Homo sapiens)", "LABEL_VALUE": "label 1"}
{"COMPOUND": "COc1nc2ccc(C(O)(c3ccc(C)nc3C)c3cnc(C)n3C)cc2c(Cl)c1Cc1ccc(C(F)(F)F)cc1 (racemic) [Example 57a]", "TARGET_DESC": "wild type human RORγt ligand binding domain (RORyt LBD) (Homo sapiens)", "LABEL_VALUE": "label 1"}
{"COMPOUND": "Cn1cncc1C(O)(c1ccc(Cl)cc1)c1ccc2nc(C(F)(F)F)c(Cc3ccccc3)c(C#N)c2c1 (centres unmarked)", "TARGET_DESC": "wild type human RORγt ligand binding domain (RORyt LBD) (Homo sapiens)", "LABEL_VALUE": "label 1"}
{"COMPOUND": "Cc1ccc(C(O)(c2ccc3nc(N4CCC4)c(Cc4ccc(C(F)(F)F)cc4)c(Cl)c3c2)c2cnnn2C)c(C)n1 (centres unmarked) [Example 140a]", "TARGET_DESC": "wild type human RORγt ligand binding domain (RORyt LBD) (Homo sapiens)", "LABEL_VALUE": "label 1"}
{"COMPOUND": "Cc1ccc(C(O)(c2ccc3nc(Cl)c(Cc4ccc(C(F)(F)F)cc4)c(NC4CC4)c3c2)c2cnnn2C)c(C)n1 (single isomer, unassigned) [Example 144c]", "TARGET_DESC": "wild type human RORγt ligand binding domain (RORyt LBD) (Homo sapiens)", "LABEL_VALUE": "label 1"}
{"COMPOUND": "COc1c(Cc2ccccc2)c(C(F)(F)F)nc2ccc(C(O)(c3ccccn3)c3cncn3C)cc12 (single isomer, unassigned) [Example 98b]", "TARGET_DESC": "wild type human RORγt ligand binding domain (RORyt LBD) (Homo sapiens)", "LABEL_VALUE": "label 0"}
{"COMPOUND": "COc1nc2ccc(C(O)(C3CN(C(C)=O)C3)C3CN(C(C)=O)C3)cc2c(Cl)c1Cc1ccc(C(F)(F)F)cc1", "TARGET_DESC": "wild type human RORγt ligand binding domain (RORyt LBD) (Homo sapiens)", "LABEL_VALUE": "label 1"}
{"COMPOUND": "COc1nc2ccc(C(O)(c3ccc(C)nc3C)C3CN(C(C)=O)C3)cc2c(Cl)c1Cc1ccc(C(F)(F)F)cc1 (single isomer, unassigned) [Example 87c]", "TARGET_DESC": "wild type human RORγt ligand binding domain (RORyt LBD) (Homo sapiens)", "LABEL_VALUE": "label 1"}
{"COMPOUND": "COc1nc2ccc(C(O)(c3cnnn3C)c3cnc(C)n3C)cc2c(Cl)c1Cc1ccc(F)cc1 (racemic) [Example 65a]", "TARGET_DESC": "wild type human RORγt ligand binding domain (RORyt LBD) (Homo sapiens)", "LABEL_VALUE": "label 1"}
{"COMPOUND": "COc1ccc(C(O)(c2cccnc2)c2ccc3nc(OC)c(Cc4ccc(-n5cccn5)cc4)c(Cl)c3c2)cc1OC (centres unmarked) [Example 159a]", "TARGET_DESC": "wild type human RORγt ligand binding domain (RORyt LBD) (Homo sapiens)", "LABEL_VALUE": "label 1"}
{"COMPOUND": "COc1nc2ccc(C(O)(c3ccc(C)nc3C)c3cnnn3C)cc2c(Cl)c1Cc1ccc(N(C)C)cc1 (centres unmarked) [Example 24a]", "TARGET_DESC": "wild type human RORγt ligand binding domain (RORyt LBD) (Homo sapiens)", "LABEL_VALUE": "label 1"}
{"COMPOUND": "CC(=O)N1CCC(C(O)(c2ccccc2)c2ccc3nc(C)c(Cc4ccc(C(F)(F)F)cc4)c(Cl)c3c2)CC1 (single isomer, unassigned) [Example 27b]", "TARGET_DESC": "wild type human RORγt ligand binding domain (RORyt LBD) (Homo sapiens)", "LABEL_VALUE": "label 1"}
{"COMPOUND": "Cc1nc2ccc(C(O)(c3cnnn3C)c3cnc(C)n3C)cc2c(Cl)c1Cc1ccc(C(F)(F)F)cc1 (single isomer, unassigned) [Example 29b]", "TARGET_DESC": "wild type human RORγt ligand binding domain (RORyt LBD) (Homo sapiens)", "LABEL_VALUE": "label 1"}
{"COMPOUND": "COc1nc2ccc(C(N)(c3ccc(C(F)(F)F)nc3)c3cncn3C)cc2c(Cl)c1Cc1cc2ccccc2s1 (single isomer, unassigned) [Example 71b]", "TARGET_DESC": "wild type human RORγt ligand binding domain (RORyt LBD) (Homo sapiens)", "LABEL_VALUE": "label 1"}
{"COMPOUND": "Cn1cncc1C(O)(c1ccc(C(F)(F)F)nc1)c1ccc2nc(C(F)(F)F)c(Cc3ccccc3)c(Cl)c2c1 (centres unmarked)", "TARGET_DESC": "wild type human RORγt ligand binding domain (RORyt LBD) (Homo sapiens)", "LABEL_VALUE": "label 1"}
{"COMPOUND": "COc1nc2ccc(C(O)(c3sc(C)nc3C)c3cnnn3C)cc2cc1Cc1ccc(C(F)(F)F)cc1 (single isomer, unassigned) [Example 92b]", "TARGET_DESC": "wild type human RORγt ligand binding domain (RORyt LBD) (Homo sapiens)", "LABEL_VALUE": "label 0"}
{"COMPOUND": "COc1nc2ccc(C(O)(c3ccc(C)nc3C)c3cnc(C)n3C)cc2c(Cl)c1Cc1ccc(C(F)(F)F)cc1 (single isomer, unassigned) [Example 57b]", "TARGET_DESC": "wild type human RORγt ligand binding domain (RORyt LBD) (Homo sapiens)", "LABEL_VALUE": "label 0"}
{"COMPOUND": "Cc1nc2ccc(C(O)(c3cnnn3C)C3CN(C(=O)OC(C)(C)C)C3)cc2c(Cl)c1Cc1ccc(C(F)(F)F)cc1 (centres unmarked)", "TARGET_DESC": "wild type human RORγt ligand binding domain (RORyt LBD) (Homo sapiens)", "LABEL_VALUE": "label 1"}
{"COMPOUND": "COC1CN(c2nc3ccc(C(O)(c4ccc(C(F)(F)F)nc4)c4cncn4C)cc3c(Cl)c2Cc2ccc(-n3cccn3)cc2)C1 (single isomer, unassigned) [Example 133b]", "TARGET_DESC": "wild type human RORγt ligand binding domain (RORyt LBD) (Homo sapiens)", "LABEL_VALUE": "label 0"}

* * *

TARGET_DESC: wild type human RORγt ligand binding domain (RORyt LBD) (Homo sapiens)
Construct: His-tag (N); TurboTEV protease cleavage site (ENLYFQG) (N)
EXPERIMENTAL_DETAILS: RORγt ThermoFluor assay (thermal shift, binding affinity KD)
pKd: −log10 of the molar value.

{"MOLECULE": "Cc1cc(C(O)(c2ccc(Cl)cc2)c2cncn2C)cc2c(Cl)c(Cc3ccc(-n4cccn4)cc3)c(S(C)(=O)=O)nc12 (stereo not drawn) [Example 142]", "OPERATOR_SYMBOL": "=", "pKd": 5.82}
{"MOLECULE": "COc1nc2ccc(C(O)(c3ccc(C)nc3C)c3cnnn3C)cc2c(C#N)c1Cc1ccc(C(F)(F)F)nc1 (single isomer, unassigned) [Example 41b]", "OPERATOR_SYMBOL": "=", "pKd": 5.92}
{"MOLECULE": "CCc1nc2ccc(C(O)(c3cnc(C)n3C)c3cnc(C)n3C)cc2c(C#N)c1Cc1ccc(C(F)(F)F)cc1 [Example 8]", "OPERATOR_SYMBOL": "=", "pKd": 11.05}
{"MOLECULE": "COc1nc2ccc(C(O)(c3ccc(C(F)(F)F)nc3)c3cnnn3C)cc2c(Cl)c1Cc1ccc(C(F)(F)F)cc1 (single isomer, unassigned) [Example 75c]", "OPERATOR_SYMBOL": "=", "pKd": 8.60}
{"MOLECULE": "COc1nc2ccc(C(O)(c3cnc(C)n3C)c3cnc(C)n3C)cc2c(Cl)c1Cc1ccc(C(F)(F)F)s1 [Example 7]", "OPERATOR_SYMBOL": "=", "pKd": 10.49}
{"MOLECULE": "CCN(CC)c1nc2ccc(C(O)(c3ccc(Cl)cc3)c3cncn3C)cc2c(C#N)c1Cc1ccc(-n2cccn2)cc1 (single isomer, unassigned) [Example 154c]", "OPERATOR_SYMBOL": "<", "pKd": 4.25}

* * *

TARGET_DESC: wild type human RORγt LBD (Homo sapiens)
Construct: expressed in transfected cells; host or cells: HEK293T
EXPERIMENTAL_DETAILS: RORγt (LBD) Reporter Assay (GAL4-luciferase, HEK293T cells)
Assay type: cell-based
REPORTED_CONDITIONS: HEK293T cells; value after the comma with ∼, > or < could not be included in the average
IC50 for assorted compounds
REPORTED_PROPERTY: IC50 (nM)

{"COMPOUND": "COc1nc2ccc(C(O)(c3ccc(C#N)cc3)c3cncn3C)cc2c(Cl)c1Cc1ccc(-n2cncn2)cc1 (stereo not drawn) [Example 14a]", "TARGET_DESC": "wild type human RORγt LBD (Homo sapiens)", "UNIT_NAME": "nM", "VAL": 42}
{"COMPOUND": "COc1nc2ccc(C(O)(c3ccc(C#N)cc3)c3cncn3C)cc2c(Cl)c1Cc1ccc(-n2cncn2)cc1 (single isomer, unassigned) [Example 14c]", "TARGET_DESC": "wild type human RORγt LBD (Homo sapiens)", "UNIT_NAME": "nM", "VAL": 24}
{"COMPOUND": "CC(=O)N1CCC(C(O)(c2cc(C)c3nc(C#N)c(Cc4ccc(-n5cccn5)cc4)c(C#N)c3c2)c2cncn2C)CC1 (single isomer, unassigned) [Example 81b]", "TARGET_DESC": "wild type human RORγt LBD (Homo sapiens)", "UNIT_NAME": "nM", "VAL": 310}
{"COMPOUND": "COc1nc2ccc(C(O)(c3sc(C)nc3C)c3cnnn3C)cc2c(Cl)c1Cc1ccc(-n2cccn2)cc1 (single isomer, unassigned) [Example 21c]", "TARGET_DESC": "wild type human RORγt LBD (Homo sapiens)", "UNIT_NAME": "nM", "VAL": 8.7}
{"COMPOUND": "COc1nc2ccc(C(O)(c3ccc(C)nc3C)c3cnnn3C)cc2c(Cl)c1Cc1ccc(-n2cccn2)cc1 (stereo not drawn) [Example 17a]", "TARGET_DESC": "wild type human RORγt LBD (Homo sapiens)", "UNIT_NAME": "nM", "VAL": 10}
{"COMPOUND": "COc1nc2ccc(C(O)(c3cncn3C)C3CCOCC3)cc2c(Cl)c1Cc1ccc(-n2cccn2)cc1 (single isomer, unassigned) [Example 1c]", "TARGET_DESC": "wild type human RORγt LBD (Homo sapiens)", "UNIT_NAME": "nM", "VAL": 22}
{"COMPOUND": "COc1nc2ccc(C(O)(c3cncn3C)C3CCOCC3)cc2c(C#N)c1Cc1ccc(-n2cccn2)cc1 (stereo not drawn)", "TARGET_DESC": "wild type human RORγt LBD (Homo sapiens)", "UNIT_NAME": "nM", "VAL": 130}
{"COMPOUND": "Cc1nc2ccc(C(O)(c3ccc(C(F)(F)F)nc3)c3cncn3C)cc2c(Cl)c1Cc1ccc(C(F)(F)F)cc1 (stereo not drawn) [Example 26a]", "TARGET_DESC": "wild type human RORγt LBD (Homo sapiens)", "UNIT_NAME": "nM", "VAL": 33}

These measurements were taken from patent EP3057951B1.
